# reported herbicidal action POLCO; entries follow
System: Polygonum convolvulus
Assay: Pre-emergence herbicidal action, POLCO
Format: in vivo
Details: dosage 320 g/ha
Provide only the numeric value, understood in %.

Please review the following examples before continuing.
CCCn1nnnc1NC(=O)c1ccc(C)c(CS(C)(=O)=O)c1Cl ... 80
CCCn1nnnc1NC(=O)c1ccc(C(F)(F)F)c(C[S+](C)[O-])c1OC (stereo not shown) ... 90
Cc1ccc(C(=O)Nc2nnnn2C)c(Cl)c1C[S+](C)[O-] (racemic) ... 80
CCS(=O)(=O)Cc1c(C(F)F)ccc(C(=O)Nc2nnnn2C)c1S(=O)(=O)CC ... 100
CCCn1nnnc1NC(=O)c1ccc(S(C)(=O)=O)c(C[S+](C)[O-])c1C (stereo not shown) ... 80
CCSCc1c(C(F)(F)F)ccc(C(=O)Nc2nnnn2CC)c1C ... 80

Which herbicidal action POLCO is listed for CCn1nnnc1NC(=O)c1ccc(C)c(CS(C)(=O)=O)c1Cl ?
80

Dear colleague, I am looking for the recorded herbicidal action POLCO of the following compound: Cc1c(C(=O)Nc2nnnn2C)ccc(C(F)F)c1C[S+](C)[O-] (stereo not shown)
90

Which herbicidal action POLCO reading was recorded for the compound CCCn1nnnc1NC(=O)c1ccc(C(F)(F)F)c(CSCC)c1C ?
90

Any idea what herbicidal action POLCO was measured for COc1c(C(=O)Nc2nnnn2C)ccc(Cl)c1CSC ?
80

Measured values drawn from patent US12492173B2 for this set.
